As shown below, each of these binders has a reported ELISA value.
# tested-on: T1, hVEGF-A (8-109) (human, UniProt P15692 214-315)
# T1 construct: residue numbers count on mature VEGF-A; dimer
# T1 sequence (looked up): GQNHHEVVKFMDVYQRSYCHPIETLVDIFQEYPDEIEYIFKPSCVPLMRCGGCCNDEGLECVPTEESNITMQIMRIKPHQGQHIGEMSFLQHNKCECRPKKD
# method: spot phage ELISA
experimental-readout: ELISA

In [3]: df
Out[3]:
                                      binder  measured
 0  GCNVLLPLWGCKQDSDCLAGCVCHWYQSCG (designed binder) [VEGF_CKP9.L1.64]       2.3
 1  GCLDRTLNWALYCKQDSDCLAGCVCQMYNSCG (designed binder) [VEGF_CKP7.54]       0.5
 2  GCHLFEPLWGCKQDSDCLAGCVCHWYQSCG (designed binder) [VEGF_CKP9.L1.2]       1.6
 3  GCHLLLPLWGCKQDSDCLAGCVCRWYHSCG (designed binder) [VEGF_CKP9.76]       1.3
 4  GCKNPLFNWALYCKQDSDCLAGCVCQLFDSCG (designed binder) [VEGF_CKP7.8]       0.5
 5  GCRDLDVKWDCKQDSDCLAGCFCQYYSSCG (designed binder) [VEGF_CKP10]       3.2
 6  GCQDPTFNWAEYCKQDSDCLAGCVCQLYQSCG (designed binder) [VEGF_CKP7.19]       0.6
 7  GCQISQPFWGCKQDSDCLAGCVCHFYNSCG (designed binder) [VEGF_CKP9.3]       1.6
 8  GCQLLEPMWGCKQDSDCLAGCVCHWYNSCG (designed binder) [VEGF_CKP9.9]       1.1
 9  GCQDPKLNWAVYCKQDSDCLAGCVCQLFNSCG (designed binder) [VEGF_CKP7.88]       0.5
10  GCNIMLPFWGCGKELNCLAGCVCQYYQSCG (designed binder) [VEGF_CKP9.54.69]       2.5
11  GCKIMQPLWGCKQDSDCLAGCVCLWYDSCG (designed binder) [VEGF_CKP9.47]         1
12  GCQLMHPFWGCKQDSDCLAGCVCHWYRSCG (designed binder) [VEGF_CKP8]       3.9
